Reference source for all entries: patent US12492188B2

Answer each item with its documented pIC50.
# TGT: human TLR9 (Homo sapiens, UniProt Q9NR96)
# Construct: host or cells: HEK-Blue cells (HEK293-derived reporter line)
# Sequence (Q9NR96 26-1032): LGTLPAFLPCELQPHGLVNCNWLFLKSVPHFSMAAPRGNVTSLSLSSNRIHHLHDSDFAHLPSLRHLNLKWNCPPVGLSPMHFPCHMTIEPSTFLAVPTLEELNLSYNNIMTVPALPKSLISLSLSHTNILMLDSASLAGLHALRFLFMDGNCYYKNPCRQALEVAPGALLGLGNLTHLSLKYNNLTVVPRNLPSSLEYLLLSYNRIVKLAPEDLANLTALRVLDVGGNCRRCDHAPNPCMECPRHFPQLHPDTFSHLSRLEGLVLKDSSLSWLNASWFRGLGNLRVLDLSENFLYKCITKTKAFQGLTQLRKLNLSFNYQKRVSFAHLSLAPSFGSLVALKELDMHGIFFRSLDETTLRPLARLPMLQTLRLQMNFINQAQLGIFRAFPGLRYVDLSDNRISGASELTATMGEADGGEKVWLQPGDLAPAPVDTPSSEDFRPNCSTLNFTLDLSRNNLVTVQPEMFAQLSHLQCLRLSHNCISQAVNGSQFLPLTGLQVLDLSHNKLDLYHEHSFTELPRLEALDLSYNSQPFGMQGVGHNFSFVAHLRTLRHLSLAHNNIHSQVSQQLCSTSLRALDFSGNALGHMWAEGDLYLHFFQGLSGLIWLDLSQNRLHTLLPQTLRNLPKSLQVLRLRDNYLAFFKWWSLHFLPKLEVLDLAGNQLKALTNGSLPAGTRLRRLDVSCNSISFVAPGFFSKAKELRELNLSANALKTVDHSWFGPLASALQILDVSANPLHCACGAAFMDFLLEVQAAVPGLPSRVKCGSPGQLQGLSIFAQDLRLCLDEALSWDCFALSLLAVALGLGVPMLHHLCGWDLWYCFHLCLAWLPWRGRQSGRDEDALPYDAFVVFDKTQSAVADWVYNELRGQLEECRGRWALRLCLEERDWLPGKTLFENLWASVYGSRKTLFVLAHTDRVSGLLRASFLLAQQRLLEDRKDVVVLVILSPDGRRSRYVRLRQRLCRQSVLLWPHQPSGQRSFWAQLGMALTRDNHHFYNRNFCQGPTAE
# EXPERIMENT NOTES: TLR9 inhibition reporter assay (HEK-Blue cells, secreted embryonic alkaline phosphatase reporter)
# Type: cell-based
# RUN CONDITIONS: HEK-Blue cells overexpressing human TLR9, stimulated with ODN2006 5 nM; read-out: TLR 9 IC50
A value of pIC50 is the negative decimal logarithm of a concentration given in moles per litre.

Quick note, pIC50 for CC(C)CN1C2CCC1CC(N1CCC(c3ccc4c(nc(-c5ccc(S(C)(=O)=O)cc5)n4C)c3F)CC1)C2 (single isomer, unassigned) [Example 190] landed at 5.58

Quick note, pIC50 for COc1ccc(-c2nc3c(C)cc(C4CCN(C5CCN(C6CC6)CC5)CC4)cc3n2C)cc1F landed at 6.85

Quick note, pIC50 for CS(=O)(=O)c1ccc(-c2nc3ccc(C4CCN(C5CCN(C6CCOCC6)CC5)CC4)c(F)c3[nH]2)cc1 landed at 6.50

Quick note, pIC50 for Cn1c(-c2ccc(S(C)(=O)=O)cc2)nc2cc(C3CCN(C4CCN(C5CC5)CC4)CC3)c(F)cc21 landed at 5.77

###

# TGT: human TLR9 (Homo sapiens)
# Construct: host or cells: HEK-Blue cells (HEK293-derived reporter line)
# EXPERIMENT NOTES: TLR9 inhibition reporter assay (HEK-Blue cells, secreted embryonic alkaline phosphatase reporter)
# Format: cell-based
# RUN CONDITIONS: HEK-Blue human TLR9 reporter cells
VALUE KIND: log10 IC50 (log10 of the value in µM)
Please be aware that the numbers have been log10-transformed from IC50 in µM.

Quick note, log10 IC50 for Cc1cc(C2CCN(C3CCN(CC4CC4)CC3)CC2)cc2c1nc(-c1ccc(S(C)(=O)=O)c(F)c1)n2C landed at -0.59

Quick note, log10 IC50 for Cc1cc(C2CCN(C3CC4CCC(C3)N4CC(C)C)CC2)cc2[nH]c(-c3ccc(S(C)(=O)=O)c(F)c3)nc12 (stereo not shown) landed at -1.25

Quick note, log10 IC50 for Cc1cc(C2CCN(C3CC4CCC(C3)N4CC3CC3)CC2)cc2[nH]c(-c3ccc(S(C)(=O)=O)cc3)nc12 (stereo not shown) [Example 336] landed at -1.11

Quick note, log10 IC50 for CS(=O)(=O)c1ccc(-c2nc3c(F)cc(C4CCN(C5CC6CCC(C5)N6C5CCOCC5)CC4)cc3n2C2CC2)cc1 (stereo not shown) [Example 328] landed at -1.92

Quick note, log10 IC50 for Cc1cc(C2CCN(C3CC4CCC(C3)N4C3CCC3)CC2)cc2[nH]c(-c3ccc(S(C)(=O)=O)c(F)c3)nc12 (stereo not shown) [Example 349] landed at -1.62

Quick note, log10 IC50 for Cn1c(-c2ccc(S(C)(=O)=O)cc2)nc2ccc(C3CCN(C4CCCN(C5CCOCC5)CC4)CC3)c(F)c21 (stereo not shown) [Example 317] landed at -1.74

Quick note, log10 IC50 for COc1cc(-c2nc3c(C)cc(C4CCN(C5CC6CCC(C5)N6C(C)C)CC4)cc3[nH]2)cn2ncnc12 (stereo not shown) landed at -0.82

###

Answer each item with its documented pIC50.
# TGT: human TLR8 (Homo sapiens)
# Sequence (Q9NR97 27-1041): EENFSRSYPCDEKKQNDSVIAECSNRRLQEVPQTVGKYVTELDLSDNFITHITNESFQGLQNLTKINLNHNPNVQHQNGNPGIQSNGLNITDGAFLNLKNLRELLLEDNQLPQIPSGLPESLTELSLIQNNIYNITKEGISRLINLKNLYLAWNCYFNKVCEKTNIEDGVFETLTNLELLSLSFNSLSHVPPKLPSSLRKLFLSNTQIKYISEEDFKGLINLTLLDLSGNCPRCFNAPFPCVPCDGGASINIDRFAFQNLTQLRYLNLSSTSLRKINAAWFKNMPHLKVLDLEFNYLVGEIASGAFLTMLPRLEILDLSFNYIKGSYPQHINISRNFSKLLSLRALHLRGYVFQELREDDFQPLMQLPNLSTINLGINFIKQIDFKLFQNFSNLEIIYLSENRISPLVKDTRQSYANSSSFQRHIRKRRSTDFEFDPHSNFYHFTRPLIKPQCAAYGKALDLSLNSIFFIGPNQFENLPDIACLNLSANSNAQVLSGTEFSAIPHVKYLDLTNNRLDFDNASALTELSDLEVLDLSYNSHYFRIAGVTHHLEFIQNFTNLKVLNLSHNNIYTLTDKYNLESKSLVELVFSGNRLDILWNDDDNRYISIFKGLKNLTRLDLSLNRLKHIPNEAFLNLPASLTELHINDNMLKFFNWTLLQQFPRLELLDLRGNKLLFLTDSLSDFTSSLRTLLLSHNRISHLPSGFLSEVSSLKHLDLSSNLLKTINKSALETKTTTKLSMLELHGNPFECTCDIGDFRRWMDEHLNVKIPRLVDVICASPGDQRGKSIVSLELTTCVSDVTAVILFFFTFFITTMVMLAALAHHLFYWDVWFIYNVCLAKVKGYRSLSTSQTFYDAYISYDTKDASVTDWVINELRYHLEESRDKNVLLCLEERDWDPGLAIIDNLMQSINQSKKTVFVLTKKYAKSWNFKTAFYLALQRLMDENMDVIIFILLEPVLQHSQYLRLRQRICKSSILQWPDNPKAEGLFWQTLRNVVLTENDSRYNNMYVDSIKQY
# EXPERIMENT NOTES: TLR8 inhibition reporter assay (HEK-Blue cells, secreted embryonic alkaline phosphatase reporter)
# RUN CONDITIONS: HEK-Blue cells overexpressing human TLR8, stimulated with R848 15.9 μM; read-out: TLR 8 IC50
pIC50: −log10 of the molar value.

Quick note, pIC50 for Cn1c(-c2ccc(S(C)(=O)=O)cc2)nc2c(F)cc(C3CCN(C4CCN(C5CCOCC5)CC4)CC3)cc21 [Example 280] landed at < 4.30

Quick note, pIC50 for COCCN1C2CCC1CC(N1CCC(c3cc4nc(-c5ccc(S(C)(=O)=O)cc5)n(C)c4cc3F)CC1)C2 (centres unmarked) [Example 257] landed at < 4.30

Quick note, pIC50 for COc1ccc(-c2nc3c(C)cc(C4CCN(C5CCN(CC(C)C)CC5)CC4)cc3[nH]2)cc1F [Example 56] landed at < 4.30

Quick note, pIC50 for CS(=O)(=O)c1ccc(-c2nc3c(F)cc(-c4ccc(CN5CCC(N6CCCC6)CC5)cc4)cc3n2C2CC2)cc1 [Example 408] landed at 6.05

Quick note, pIC50 for Cc1cc(-c2ccc(CN3CCN(C(C)C)CC3)cc2)cc2c1nc(-c1ccc(S(C)(=O)=O)cc1)n2C [Example 413] landed at 5.27

Quick note, pIC50 for Cc1cc(C2CCN(C3CC4CCC(C3)N4C3CCOCC3)CC2)cc2c1nc(-c1ccc(S(C)(=O)=O)cc1)n2C (single isomer, unassigned) [Example 160] landed at < 4.60

Quick note, pIC50 for COc1cc(-c2nc3c(C)cc(C4CCN(C5CC6CCC(C5)N6CC5CC5)CC4)cc3n2C)cn2ncnc12 (centres unmarked) [Example 358] landed at 5.55

Quick note, pIC50 for Cn1c(-c2ccc(S(C)(=O)=O)cc2)nc2cc(C3CCN(C4CCN(C5COC5)CC4)CC3)c(F)cc21 [Example 244] landed at < 4.30

Quick note, pIC50 for Cn1c(-c2ccc(S(C)(=O)=O)cc2)nc2ccc(C3CCN(C4CC5CCC(C4)N5CC4CC4)CC3)c(F)c21 (centres unmarked) [Example 269] landed at 4.67

Quick note, pIC50 for Cn1c(-c2ccc(S(C)(=O)=O)cc2)nc2cc(F)c(C3CCN(C4CC5CCC(C4)N5C4CCOCC4)CC3)cc21 (centres unmarked) [Example 237] landed at < 4.30

Quick note, pIC50 for Cn1c(-c2ccc(S(C)(=O)=O)cc2)nc2cc(C3CCN(C4CC5CCC(C4)N5C4CCC4)CC3)cc(F)c21 (single isomer, unassigned) [Example 216] landed at < 4.30

Quick note, pIC50 for CC(C)CN1C2CCC1CC(N1CCC(c3ccc4nc(-c5ccc(S(C)(=O)=O)cc5)[nH]c4c3F)CC1)C2 (single isomer, unassigned) [Example 219] landed at < 4.30

Quick note, pIC50 for COc1ccc(-c2nc3cc(C4CCN(C5CCN(CC(C)C)CC5)CC4)ccc3n2C(C)C)cc1OC [Example 36] landed at 5.34

Quick note, pIC50 for COCCN1C2CCC1CC(N1CCC(c3cc(C)c4nc(-c5ccc(S(C)(=O)=O)cc5)n(C)c4c3)CC1)C2 (single isomer, unassigned) [Example 163] landed at < 4.60

Quick note, pIC50 for Cc1cc(C2CCN(C3CCN(C4CCC4)CC3)CC2)cc2c1nc(-c1ccc(S(C)(=O)=O)c(F)c1)n2C [Example 337] landed at < 4.30

Quick note, pIC50 for CC(C)N1CCC(N2CCC(c3ccc4c(nc(-c5ccc(S(C)(=O)=O)cc5)n4C)c3F)CC2)CC1 [Example 88] landed at < 4.30

Quick note, pIC50 for COc1ccc(-c2nc3c(C)cc(C4CCN(C5CCN(C(C)C)CC5)CC4)cc3[nH]2)cc1OC [Example 11] landed at < 4.30

Quick note, pIC50 for Cc1cc(-c2ccc(CN3CCC(N(C)C)CC3)c(F)c2)cc2c1nc(-c1ccc(S(C)(=O)=O)cc1)n2C [Example 390] landed at 4.99

Quick note, pIC50 for Cn1c(-c2ccc(S(C)(=O)=O)cc2)nc2c(F)cc(C3CCN(C4CC5CCC(C4)N5C4CCC4)CC3)cc21 (single isomer, unassigned) [Example 293] landed at 4.35

Quick note, pIC50 for COc1ccc(-c2nc3c(C)cc(C4CCN(C5CC6(C5)CN(C(C)C)C6)CC4)cc3[nH]2)cc1OC [Example 12] landed at < 4.30

Quick note, pIC50 for CC(C)N1C2CCC1CC(N1CCC(c3cc(F)c4c(c3)nc(-c3ccc(S(C)(=O)=O)cc3)n4C)CC1)C2 (single isomer, unassigned) [Example 93] landed at < 4.30

Quick note, pIC50 for COCCN1CCCC(N2CCC(c3cc(F)c4nc(-c5ccc(S(C)(=O)=O)cc5)n(C)c4c3)CC2)CC1 (single isomer, unassigned) [Example 302] landed at < 4.30

Quick note, pIC50 for Cn1c(-c2ccc(S(C)(=O)=O)cc2)nc2c(F)cc(C3CCN(C4CC5CCC(C4)N5C4COC4)CC3)cc21 (centres unmarked) [Example 287] landed at < 4.30

Quick note, pIC50 for CC(C)CN1C2CCC1CC(N1CCC(c3ccc4nc(-c5ccc(S(C)(=O)=O)cc5)[nH]c4c3F)CC1)C2 (single isomer, unassigned) [Example 220] landed at < 4.30

Quick note, pIC50 for Cn1c(-c2ccc(S(C)(=O)=O)cc2)nc2cc(C3CCN(C4CCN(C5CCOCC5)CC4)CC3)c(F)cc21 [Example 245] landed at < 4.30

Quick note, pIC50 for COc1ccc(-c2nc3c(C)cc(C4CC5CCC(C4)N5C4CCN(C5CC5)CC4)cc3n2C)cc1OC (centres unmarked) [Example 51] landed at < 4.30
